# Experimental system: GLP-1 receptor (UniProt P43220 24-463, limits assumed)
# Assay summary: cell-based or functional assay
Square brackets hold non-standard residues; d marks the D form. Ends that are not written are not given here. Aib = CC(C)(N)C(=O)O
Note to self: use satisfied only for EC50 at the GLP-1 receptor readings below 0.5 nM; a reading exactly at 0.5 nM still gets not satisfied.

stdin: Would you kindly verify if EC50 at the GLP-1 receptor of HXQGTFTSDKSKYLDERRAKDFVQWLMNT (d-Ser at position 2; Lys at position 10 acylated with a C14 fatty acyl group; C-terminal amide) [Peptide dS2K10(C14)E16K20-Gluc Amide] is strictly less than 0.5 nM?
stdout: satisfied

stdin: Could you please tell me whether EC50 at the GLP-1 receptor recorded for HXQGTFTSDYSKYLDEQAAKEFICWLMNTK (AIB at position 2; Lys at position 30 acylated with a C18 fatty acyl group; Cys at position 24 comprises a 40 kDa PEG molecule; C-terminal amide) [Peptide Chimera 2-AIB2-K30-acylated] is less than 0.5 nM?
stdout: satisfied

stdin: State whether 0.5 nM exceeds EC50 at the GLP-1 receptor recorded for H[Aib]QGTFTSDK(C18 fatty acyl)SKYLDEQAAKEFIC(PEG 40 kDa)WLMNT-NH2 [Peptide Chimera 2-AIB2-K10-acylated] .
stdout: satisfied

stdin: Is EC50 at the GLP-1 receptor of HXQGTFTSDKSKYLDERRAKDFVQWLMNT (d-Ser at position 2; Lys at position 10 acylated with a C16 fatty acyl group; C-terminal amide) [Peptide dS2K10(C16)E16K20-Gluc Amide] strictly below 0.5 nM?
stdout: satisfied

stdin: Is 0.5 nM strictly greater than the binder's reported EC50 at the GLP-1 receptor? binder: HXQGTFTSDYSKYLDERRAKDFVQWLMNTK (d-Ser at position 2; Lys at position 30 acylated with a C16 fatty acyl group; C-terminal amide) [Peptide dS2E16K20K30-C16 Gluc Amide]
stdout: not satisfied

stdin: Please state whether EC50 at the GLP-1 receptor is below 0.5 nM for HXQGTFTSDYSKYLDERRAKDFVQWLMNTK (d-Ser at position 2; Lys at position 30 acylated with a C14 fatty acyl group; C-terminal amide) [Peptide dS2E16K20K30-C14 Gluc Amide]
stdout: not satisfied
